Numbers sourced from the DeepSol protein solubility set.

- Assay explanation: soluble on expression in E. coli; label from the status in PepcDB or PDB records
Test readout: soluble on expression in E. coli

Seq text	Result
MAHHHHHHMELCLYNSKNGYLEALLRGFRSSFLTPEEYKKLTEVDTLEDLKSVLEDTDYGSFMMDEPSPIAVTTIAQKCKEKMAHEFNYIRAQAEEPLRTFLDYIAKEKMIDNVIILIHGTLNKKPAEELLSRVDPLGYFPQMKAITTMDVQNSHDDVLKVLLIETPIGTYFDKYISANASNEKNNVTTILNEMDIEILRNTLKKAWLEDFYDFIRELGGKTEEVMGHILKSVADFRVLSVTLNTINSSLSLELQKDRNDMFPCFGYLYPEGTDRIRKCWNNETVQAALENYPTYYNLYEECKQFYMKNENMQDSKIVDHKVKSLEDLLYVKLVKLCETAFDQHCHFGIFYAWVKLKEQEIRNIVWISDMILMNRKDCIDSIIPIFEPQI	not soluble
AIAPDESAQVRFLIVGRTGWIANMVAELLEQRGERYAFASFRLEQREACELELDALRPQRVLNCAGVTGRPNVDWCEDHRRETVRSNVLGVLNLADCCASRGIHLTNFATGCLYHYDDGEHRPTAEGGRPFTEDDPPNFFGSYYSRTKAMVEELLRSAFDNVLILRLRMPVSDDLSPRSFVAKIARYEKVVNIPNSMTVLTELLPVALDMSERGLTGVYNFTNPGSISHNEVLELYRKYIDPKFQWKNFTLEEQAKILKAGRSNCELDVRKLLRDNPGAQIREVHAAMEEVFRRMQAKGVKPLAAP	soluble
MTDKKTTEKKETETAATFTEELTAVLEEIKEEPVKEKKKGEIVTIVNETDIQIGEREYRIVKNHRDAFDPERLGERFSEVLARYDYIVGDWGYEQLRLRGFFDTSNRRAAPDQRIDTLEDYLYEYCNFGCAYFVIERTGERKEKTTHRRRRHKKNNRSNAFVEEKSAPANKNSKPVIRTRKEENKKTTTPKQPSPKKSGKGFTIRQREELEHHHHHH	soluble
GMTASTAPQTEPHKTSAPESGPVMLLVATIKGAWFLASDPARRTWELRGPVFLGHTIHHIVQDPREPERMLMAARTGHLGPTVFRSDDGGGNWTEATRPPAFNKAPEGETGRVVDHVFWLTPGHASEPGTWYAGTSPQGLFRSTDHGASWEPVAGFNDHPMRRAWTGGEQDGTPDGPKMHSILVDPRDPKHLYIGMSSGGVFESTDAGTDWKPLNRGCAANFLPDPNVEFGHDPHCVVQHPAAPDILYQQNHCGIYRMDRREGVWKRIGDAMPREVGDIGFPIVVHQRDPRTVWVFPMDGSDVWPRVSPGGKPAVYVTRDAGESWQRQDRGLPTDQAWLTVKRQAMTADAHAPVGVYFGTTGGEIWASADEGEHWQCIASHLPHIYAVQSARPV	soluble

Ask: Which soluble on expression in E. coli is reported for this sequence? MEQPTRPGFATRRRTQLFDALVDLILVEGFAHLTLDEIANRLRCSKSTLYTLAGSKEQLVRAATVHFFRRATDDVESHIEPIAGARERITAYLSAVGTALSAASDQFMADLDAFPPAREVYERNTQFAAGRVQELITEGVAGGDFRDVHAAFAADLAATMMVRIQQRGVRDSTGLDDAHAYAELAAILTGGISA
Result: not soluble
